Would you kindly list killing ratio, CAR-T cells on KG-1a-GFP-Luc, E:T=3:1, 4 h, luciferase for each of these binders?
Molecular target: T1, CD7 on cells (K562-CD7 positive cells; KG-1a-GFP-Luc; CCRF-CEM) (UniProt P09564 26-240, limits assumed)
T1 sequence (looked up): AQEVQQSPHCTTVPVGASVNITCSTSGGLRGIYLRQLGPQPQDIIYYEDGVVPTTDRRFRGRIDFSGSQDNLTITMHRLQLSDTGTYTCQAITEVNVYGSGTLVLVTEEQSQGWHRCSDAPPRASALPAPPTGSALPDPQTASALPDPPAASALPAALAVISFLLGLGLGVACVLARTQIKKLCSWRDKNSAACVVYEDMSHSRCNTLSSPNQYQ
Assay: cell-based or functional assay
# number only, unit % dropped from output

// query killing ratio, CAR-T cells on KG-1a-GFP-Luc, E:T=3:1, 4 h, luciferase for VHH08 single VHH CAR (other) QVQLQESGGGLVQPGGSLRLSCAASGSIFSIHAMAWYRQAPGKQRELVASITVGGRTNYVDSVLGRFTISRDNAKNTVYLQMNSLKPEDTAVYYCNSLLWAGLRDSWGPGTQVTVSSTTPAPRPPTPAPTIASQPLSLRPEACRPAAGGAVHTRGLDFACDIYIWAPLAGTCGVLLLSLVITLYCKRGRKKLLYIFKQPFMRPVQTTQEEDGCSCRFPEEEEGGCELRVKFSRSADAPAYKQGQNQLYNELNLGRREEYDVLDKRRGRDPEMGGKPRRKNPQEGLYNELQKDKMAEAYSEIGMKGERRRGKGHDGLYQGLSTATKDTYDALHMQALPPR ?
// result 68.5

// query Next binder up: VHH20 single VHH CAR (other) QVQLQESGGGLVQPGGSLRLSCAASGTTLDDYAVGWFRQAPGKEREGVACISASELSTYYADSVKGRFTISRDNAKNTMYLQMNSLKPEDTAVYYCAARVGRIVDVTSTQYQYWGQGTQVTVSSTTPAPRPPTPAPTIASQPLSLRPEACRPAAGGAVHTRGLDFACDIYIWAPLAGTCGVLLLSLVITLYCKRGRKKLLYIFKQPFMRPVQTTQEEDGCSCRFPEEEEGGCELRVKFSRSADAPAYKQGQNQLYNELNLGRREEYDVLDKRRGRDPEMGGKPRRKNPQEGLYNELQKDKMAEAYSEIGMKGERRRGKGHDGLYQGLSTATKDTYDALHMQALPPR
// result 9.38
